test system: FMOC02_3 (patient-derived low-grade serous ovarian cancer cells); assay: drug sensitivity score (DSS3, normalised partial AUC of % inhibition dose-response) (DSS (score)); higher = more sensitive (stronger inhibition of viability); extreme values may be limits of the assay; settings: 72 h; library: FO5A; assay format: 2D, 384-well, CellTiter-Glo
assay-endpoint: drug sensitivity score
Lab note: record just the number, no unit beside it.

Below, each entry is followed by its recorded drug sensitivity score result.
COc1c(OCCCN2CCOCC2)ccc2c1N=C(NC(=O)c1cnc(N)nc1)N1CCN=C21 : 19.6
CC[C@H](CO)Nc1nc(NCc2ccccc2)c2ncn(C(C)C)c2n1 : 3.5
CN(C)CCOc1ccc(/C(=C(/CCCl)c2ccccc2)c2ccccc2)cc1 : 7.1

Q. // query drug sensitivity score value for entry c1cn2cc(-c3ccc4cn[nH]c4c3)nc(Nc3ccc(N4CCOCC4)cc3)c2n1
A. 0

---

tested on: FMOC17 (patient-derived low-grade serous ovarian cancer cells); assay: drug sensitivity score (DSS3, normalised partial AUC of % inhibition dose-response) (DSS (score)); higher = more sensitive (stronger inhibition of viability); extreme values may be limits of the assay; conditions: 72 h; library: FO5A; assay format: 2D, 384-well, CellTiter-Glo
assay-endpoint: drug sensitivity score
Lab note: record just the number, no unit beside it.

Below, each entry is followed by its recorded drug sensitivity score result.
COC(=O)N[C@@H](C)CNc1nccc(-c2cn(C(C)C)nc2-c2cc(Cl)cc(NS(C)(=O)=O)c2F)n1 : 0
CN(C)C(=N)NC(=N)N : 0
CC(C)(C)Cn1c(N)nc2ccc(-c3[nH]c(C(C)(C)C)nc3-c3ccc(F)cc3)nc21 : 4.4

Q. // query drug sensitivity score value for entry CC(C)C[C@H](NC(=O)[C@@H](COC(C)(C)C)NC(=O)[C@H](Cc1ccc(O)cc1)NC(=O)[C@H](CO)NC(=O)[C@H](Cc1c[nH]c2ccccc12)NC(=O)[C@H](Cc1cnc[nH]1)NC(=O)[C@@H]1CCC(=O)N1)C(=O)N[C@@H](CCCNC(=N)N)C(=O)N1CCC[C@H]1C(=O)NNC(N)=O
A. 0

---

tested on: FMOC22 (patient-derived mucinous ovarian cancer cells); test: drug sensitivity score (DSS3, normalised partial AUC of % inhibition dose-response) (DSS (score)); higher = more sensitive (stronger inhibition of viability); extreme values may be limits of the assay; conditions: 72 h; library: FO5A; assay format: 2D, 384-well, CellTiter-Glo
assay-endpoint: drug sensitivity score
Lab note: record just the number, no unit beside it.

Below, each entry is followed by its recorded drug sensitivity score result.
CC(C)(C#N)c1cc(Cn2cncn2)cc(C(C)(C)C#N)c1 : 0
CCS(=O)(=O)Nc1ccc(Oc2ccc(F)cc2F)c(-c2cn(C)c(=O)c3[nH]ccc23)c1 : 11.7
C/C(=C\c1csc(C)n1)[C@@H]1C[C@@H]2O[C@]2(C)CCC[C@H](C)[C@H](O)[C@@H](C)C(=O)C(C)(C)[C@@H](O)CC(=O)N1 [Ixabepilone] : 2.3

Q. // query drug sensitivity score value for entry Nc1nc(NC2CC2)cc(-c2cccc(Cl)c2Cl)n1
A. 2.3

Q. // query drug sensitivity score value for entry CC(=O)Nc1cccc(-n2c(=O)n(C3CC3)c(=O)c3c(Nc4ccc(I)cc4F)n(C)c(=O)c(C)c32)c1
A. 11.6

Q. // query drug sensitivity score value for entry COC(=O)C[C@](O)(CCCC(C)(C)O)C(=O)O[C@@H]1C(OC)=C[C@]23CCCN2CCc2cc4c(cc2[C@H]13)OCO4
A. 15.3

Q. // query drug sensitivity score value for entry COc1ccc(-c2ccc3ncc4c(c3c2)n(-c2ccc(N3CCNCC3)c(C(F)(F)F)c2)c(=O)n4C)cn1
A. 14.4
